Species: Rattus norvegicus
Assay: Open TG-GATES - Regimen: Daily Repeat
Format: toxicity, organism-based, Sprague-Dawley
Parameters: regimen Daily Repeat, gender Male, age 6 weeks
Conditions: in vivo, po, 0 mg/kg, […], tissue Plasma, route gavage, dose level Control, time 28 day
measured-attribute: TP (g/dL)
One number for each entry, in g/dL.

1. Cn1cc[nH]c1=S
6
2. O=C1CN(/N=C/c2ccc([N+](=O)[O-])o2)C(=O)N1
6.1
3. OCCN1CCN(CCCN2c3ccccc3Sc3ccc(C(F)(F)F)cc32)CC1
6.4
4. CCOC(=O)C(C)(C)Oc1ccc(Cl)cc1 [CLOFIBRATE]
6.1
5. O=[N+]([O-])c1ccc(O)c([N+](=O)[O-])c1
6.2
6. Cc1cccc(C)c1OCC(C)N (centres undefined)
6.2

I have 3 compounds here; please give me TP for each one.
1. C[C@H]1O[C@H](O[C@H]2[C@H](O)[C@@H](O)[C@@H](O[C@H]3[C@H](O)[C@@H](O)C(O)O[C@@H]3CO)O[C@@H]2CO)[C@H](O)[C@@H](O)[C@@H]1N[C@H]1C=C(CO)[C@@H](O)[C@H](O)[C@H]1O (some centres undefined)
2. C=C(C)[C@H]1Cc2c(ccc3c2O[C@@H]2COc4cc(OC)c(OC)cc4[C@@H]2C3=O)O1
3. C[C@H]1C(=O)O[C@@H]2CCN3CC=C(COC(=O)[C@](C)(O)[C@]1(C)O)[C@H]23

Outgoing:
1: 6.2; 2: 5.7; 3: 6

###

Provide the reported Ca of each item.
Species on record: Rattus norvegicus
Assay: Open TG-GATES - Regimen: Single
Format: toxicity, organism-based, Sprague-Dawley
Parameters: regimen Single, gender Male, age 6 weeks
Conditions: in vivo, po, 0 mg/kg, 9 h, tissue Plasma, route gavage, dose level Control
One number for each entry, in mg/dL.

1) CCOC(=O)C(C)(C)Oc1ccc(Cl)cc1 [CLOFIBRATE]
10.2
2) C[C@H]1O[C@H](O[C@H]2[C@H](O)[C@@H](O)[C@@H](O[C@H]3[C@H](O)[C@@H](O)C(O)O[C@@H]3CO)O[C@@H]2CO)[C@H](O)[C@@H](O)[C@@H]1N[C@H]1C=C(CO)[C@@H](O)[C@H](O)[C@H]1O (some centres undefined) [ACARBOSE]
10.4
3) O=[N+]([O-])c1ccc(O)c([N+](=O)[O-])c1 [2,4-DINITROPHENOL]
10.9

Now let's try a different one.
Incoming: Requested read-out: Ca. Entry: OCCN1CCN(CCCN2c3ccccc3Sc3ccc(C(F)(F)F)cc32)CC1 [FLUPHENAZINE]
Outgoing: 10.3

###

Species: Rattus norvegicus
Assay: Open TG-GATES - Regimen: Daily Repeat
Assay type: toxicity, organism-based, Sprague-Dawley
Parameters: regimen Daily Repeat, gender Male, age 6 weeks
Conditions: in vivo, po, 0 mg/kg, […], tissue Blood, route gavage, dose level Control, time 28 day
Provide the reported MCV of each item.
Numbers only, in fL.

Please review the entries below; each comes with its answer.
1. Cn1cc[nH]c1=S
54.7
2. O=[N+]([O-])c1ccc(O)c([N+](=O)[O-])c1
57.7
3. C=C(C)[C@H]1Cc2c(ccc3c2O[C@@H]2COc4cc(OC)c(OC)cc4[C@@H]2C3=O)O1
59.3
4. C[C@H]1O[C@H](O[C@H]2[C@H](O)[C@@H](O)[C@@H](O[C@H]3[C@H](O)[C@@H](O)C(O)O[C@@H]3CO)O[C@@H]2CO)[C@H](O)[C@@H](O)[C@@H]1N[C@H]1C=C(CO)[C@@H](O)[C@H](O)[C@H]1O (some centres undefined)
57.2

I have 5 molecules here; please give me MCV for each one.
1. CCOC(=O)C(C)(C)Oc1ccc(Cl)cc1 [CLOFIBRATE]
2. C[C@H]1C(=O)O[C@@H]2CCN3CC=C(COC(=O)[C@](C)(O)[C@]1(C)O)[C@H]23
3. Cc1cccc(C)c1OCC(C)N (centres undefined)
4. OCCN1CCN(CCCN2c3ccccc3Sc3ccc(C(F)(F)F)cc32)CC1
5. O=C1CN(/N=C/c2ccc([N+](=O)[O-])o2)C(=O)N1

Outgoing:
1: 54.9; 2: 54.6; 3: 56.3; 4: 58.8; 5: 56.4

###

Species: Rattus norvegicus
Assay: Open TG-GATES - Regimen: Single
Assay type: toxicity, organism-based, Sprague-Dawley
Set-up: regimen Single, gender Male, age 6 weeks
Details: in vivo, po, 0 mg/kg, 9 h, tissue Plasma, route gavage, dose level Control
measured-attribute: TC (mg/dL)
Give bare numbers, in mg/dL.

Please review the entries below; each comes with its answer.
1. C[C@H]1O[C@H](O[C@H]2[C@H](O)[C@@H](O)[C@@H](O[C@H]3[C@H](O)[C@@H](O)C(O)O[C@@H]3CO)O[C@@H]2CO)[C@H](O)[C@@H](O)[C@@H]1N[C@H]1C=C(CO)[C@@H](O)[C@H](O)[C@H]1O (some centres undefined)
73.6
2. C=C(C)[C@H]1Cc2c(ccc3c2O[C@@H]2COc4cc(OC)c(OC)cc4[C@@H]2C3=O)O1
81.4
3. O=[N+]([O-])c1ccc(O)c([N+](=O)[O-])c1
84.6

I have 6 compounds here; please give me TC for each one.
1. Cc1cccc(C)c1OCC(C)N (centres undefined)
2. C[C@H]1C(=O)O[C@@H]2CCN3CC=C(COC(=O)[C@](C)(O)[C@]1(C)O)[C@H]23
3. CCOC(=O)C(C)(C)Oc1ccc(Cl)cc1 [CLOFIBRATE]
4. Cn1cc[nH]c1=S
5. Cc1ccc2cc3c(ccc4ccccc43)c3c2c1CC3
6. OCCN1CCN(CCCN2c3ccccc3Sc3ccc(C(F)(F)F)cc32)CC1

Outgoing:
1: 66.2; 2: 83.2; 3: 64.2; 4: 73; 5: 71.4; 6: 84.6

###

Organism: Rattus norvegicus
Assay: Open TG-GATES - Regimen: Single
Assay type: toxicity, organism-based, Sprague-Dawley
Set-up: regimen Single, gender Male, age 6 weeks
Conditions: in vivo, po, 0 mg/kg, 3 h, tissue Blood, route gavage, dose level Control
measured-attribute: Mono
Answer format: value, then unit.

1) O=[N+]([O-])c1ccc(O)c([N+](=O)[O-])c1
8.4%
2) OCCN1CCN(CCCN2c3ccccc3Sc3ccc(C(F)(F)F)cc32)CC1
6.8%
3) CCOC(=O)C(C)(C)Oc1ccc(Cl)cc1 [CLOFIBRATE]
2.4%
4) Cc1cccc(C)c1OCC(C)N (centres undefined)
1.8%
5) C=C(C)[C@H]1Cc2c(ccc3c2O[C@@H]2COc4cc(OC)c(OC)cc4[C@@H]2C3=O)O1
5%

I have 2 compounds here; please give me Mono for each one.
1. C[C@H]1C(=O)O[C@@H]2CCN3CC=C(COC(=O)[C@](C)(O)[C@]1(C)O)[C@H]23
2. C[C@H]1O[C@H](O[C@H]2[C@H](O)[C@@H](O)[C@@H](O[C@H]3[C@H](O)[C@@H](O)C(O)O[C@@H]3CO)O[C@@H]2CO)[C@H](O)[C@@H](O)[C@@H]1N[C@H]1C=C(CO)[C@@H](O)[C@H](O)[C@H]1O (some centres undefined)

Outgoing:
3.2%
2.6%

I have 2 compounds here; please give me Mono for each one.
1. Cn1cc[nH]c1=S
2. Cc1ccc2cc3c(ccc4ccccc43)c3c2c1CC3

Outgoing:
["1.8%", "3.6%"]

###

Provide the reported TERMINAL_BW of each item.
Species: Rattus norvegicus
Assay: Open TG-GATES - Regimen: Daily Repeat
Type: toxicity, organism-based, Sprague-Dawley
Design: regimen Daily Repeat, gender Male, age 6 weeks
Details: in vivo, po, 0 mg/kg, 72 h, route gavage, dose level Control, time 3 day
Give bare numbers, in g.

Please review the entries below; each comes with its answer.
1) C[C@H]1O[C@H](O[C@H]2[C@H](O)[C@@H](O)[C@@H](O[C@H]3[C@H](O)[C@@H](O)C(O)O[C@@H]3CO)O[C@@H]2CO)[C@H](O)[C@@H](O)[C@@H]1N[C@H]1C=C(CO)[C@@H](O)[C@H](O)[C@H]1O (some centres undefined)
228.3
2) C=C(C)[C@H]1Cc2c(ccc3c2O[C@@H]2COc4cc(OC)c(OC)cc4[C@@H]2C3=O)O1
213.4
3) Cn1cc[nH]c1=S
217.3
4) O=C1CN(/N=C/c2ccc([N+](=O)[O-])o2)C(=O)N1
244.1

I have 2 molecules here; please give me TERMINAL_BW for each one.
1. Cc1cccc(C)c1OCC(C)N (centres undefined)
2. OCCN1CCN(CCCN2c3ccccc3Sc3ccc(C(F)(F)F)cc32)CC1

Outgoing:
[240.8, 233.9]

###

Organism: Rattus norvegicus
Assay: Open TG-GATES - Regimen: Single
Assay type: toxicity, organism-based, Sprague-Dawley
Parameters: regimen Single, gender Male, age 6 weeks
Details: in vivo, po, 0 mg/kg, 3 h, tissue Plasma, route gavage, dose level Control
measured-attribute: RALB (g/dL)
Give bare numbers, in g/dL.

Please review the entries below; each comes with its answer.
1) CCOC(=O)C(C)(C)Oc1ccc(Cl)cc1 [CLOFIBRATE]
3.6
2) Cc1cccc(C)c1OCC(C)N (centres undefined)
3
3) Cn1cc[nH]c1=S
3
4) C=C(C)[C@H]1Cc2c(ccc3c2O[C@@H]2COc4cc(OC)c(OC)cc4[C@@H]2C3=O)O1
3.7

I have 5 molecules here; please give me RALB for each one.
1. OCCN1CCN(CCCN2c3ccccc3Sc3ccc(C(F)(F)F)cc32)CC1
2. C[C@H]1O[C@H](O[C@H]2[C@H](O)[C@@H](O)[C@@H](O[C@H]3[C@H](O)[C@@H](O)C(O)O[C@@H]3CO)O[C@@H]2CO)[C@H](O)[C@@H](O)[C@@H]1N[C@H]1C=C(CO)[C@@H](O)[C@H](O)[C@H]1O (some centres undefined)
3. C[C@H]1C(=O)O[C@@H]2CCN3CC=C(COC(=O)[C@](C)(O)[C@]1(C)O)[C@H]23
4. Cc1ccc2cc3c(ccc4ccccc43)c3c2c1CC3
5. O=[N+]([O-])c1ccc(O)c([N+](=O)[O-])c1

Outgoing:
3.9
2.5
3.1
2.8
3.7
